Test: MMV: MTT Cytotoxicity Assay Day 3 pi, U87-CD4-CXCR4 cells, % cell death @ 5mM compound
Assay type: toxicity, cell-based
Conditions: human, u87-cd4-cxcr4, 5000 µM
Parameter threshold = 30. Response is TRUE when % Cell Death meets or exceeds it, else FALSE.

1) CCOc1c(Cl)cc(CNC(C)C(O)c2ccccc2)cc1OC (configuration not stated) :: FALSE
2) COc1ccc(C2Sc3ccccc3N=C3C2=C(O)c2ccccc23)cc1 (configuration not stated) :: FALSE
3) CCC1(C)CC(CCNCc2ccccc2O)(c2ccc(C)cc2)CCO1 (configuration not stated) :: FALSE
4) c1ccc(CNc2nc(Nc3ccccc3)nc3ccccc23)cc1 :: TRUE
5) O=C(O)C(=O)O.Oc1ccc(Br)cc1CN1CCN(Cc2cccc(F)c2)CC1 :: TRUE
6) Oc1c(C(Nc2ccccn2)c2cccc(Oc3ccccc3)c2)ccc2cccnc12 (configuration not stated) :: TRUE
7) CCCCCCOC(=O)C1=C(C)NC(=O)NC1c1ccccc1F (configuration not stated) :: FALSE
8) Cc1cc(Nc2cccc(F)c2)nc(NCc2ccccc2)n1 :: TRUE

Next item in the queue.
[in] Decide: is the reported value of % Cell Death for `CCOC(=O)c1cnc2ccc(OC)cc2c1Nc1ccc(N2CCN(C)CC2)cc1` equal to or greater than 30?
[out] TRUE

* * *

Assay: MMV: MTT Cytotoxicity Assay Day 3 pi, U87-CD4-CXCR4 cells, % cell death @ 5mM compound
Format: toxicity, cell-based
Conditions: human, u87-cd4-cxcr4, 5000 µM
value kind: % Cell Death
# respond with the number and nothing more

1) Cc1ccc(Cn2c(N3CCC(C(=O)NCc4cccs4)CC3)nc3ccccc32)cc1 :: 4

[in] Which % Cell Death reading was recorded for the compound CCOC(=O)C1=C(C)N=c2sc(=Cc3ccccc3O)c(=O)n2C1c1ccc(OC)c2ccccc12 (configuration not stated) ?
[out] 42

[in] For the compound shown here, `CN(N=O)C1=C(NC2CCCCC2)C(=O)c2ccccc2C1=O` , give the reported % Cell Death.
[out] 45

[in] Reported % Cell Death, compound `COc1ccc(/C=C2/SC(=Nc3ccccc3)NC2=O)cc1` : ____
[out] 28

[in] I would be grateful if you could share the reported % Cell Death for `O=C(Nc1ccccc1O)c1ccc(Oc2cccc(C(=O)Nc3ccccc3O)c2)cc1` .
[out] 4

[in] Reported % Cell Death for CC1CC2=C(CC1CNCCCN(C)C)C(C)(C)CCC2 (configuration not stated) : what is it?
[out] 36

[in] Quick one: % Cell Death for `Cc1cc(Nc2ccc(Cl)cc2)n2nc(C(F)(F)F)nc2n1` ?
[out] 12

[in] Which % Cell Death value belongs to COc1ccc2c(c1)OC(O)(C(F)(F)C(F)(F)F)CC2=O (configuration not stated) ?
[out] 47

[in] For the compound shown here, `CCN(CC)CCNc1ncnc2c1[nH]c1ccc(Cl)cc12` , give the reported % Cell Death.
[out] 30

[in] Given the compound COc1ccccc1N1CCN(C(CNS(=O)(=O)c2ccc(Cl)cc2)c2cccnc2)CC1 (configuration not stated) , what is its reported % Cell Death?
[out] 94

[in] Tell me the measured % Cell Death of `COc1cc2c(cc1OC)C1=NNC(=O)C1=NC(C)(C)C2` , please.
[out] 100

[in] Give its % Cell Death value. Item: `COc1cccc(Nc2nc(N)c3ccccc3n2)c1.Cl`
[out] 22

[in] Looking for the measured % Cell Death of `COc1cc(-c2nc(-c3ccc(Sc4ccccc4)cc3)c(-c3ccccc3)[nH]2)cc(OC)c1O` , can you help?
[out] 29

[in] Need % Cell Death, item `O=C(Nc1ccc(Br)cc1)Nc1cccc(Cl)c1`
[out] 22

[in] # query: % Cell Death of entry `FC(F)(F)c1cccc(Nc2nc(-c3ccccc3)nc3ncccc23)c1`
[out] -16

[in] Requested field: % Cell Death. Item: `CCOc1ccc(N2C(N)=NC(N)=NC2(C)C)cc1.Cl`
[out] 57
